assay: In vitro H2O hydrolysis and oxygen evolution catalyzed by LEAT protein under light; assay type: biochemical; design: key: +: similar O2 evolution activity as that of YFP; ++: higher O2 evolution activity than that of YFP by at least one order of magnitude; weak: lower activity than that of YFP by at least one order of magnitude; conditions: water hydrolysis and O2 evolution under light, relative to YFP
measurement.name: O2 evolution activity

anm2CP: chromoprotein from Anthomedusae sp. SL-2003 (AY485336), SEQ ID NO: 48 (protein, listed as Anthomedusae sp.) MEGGPALFQSDMTFKIFIDGVVNDQKFTIIADGSSKFPHGDFNVHAVCETGKLPMSWKPICHLIQYGEPFFAKYPNGISHFAQECFPEGLTIDRTVRFENDGTMTSHHTYELDGTCVISRITVNCDGFQPDGPIMKDQLVDILPTETHMFPHGSNAVRQLCYIGFTTADGGLMMSHFDSKLTFNGSRAIKIPGPHFVTVIIKQMKDTSDKRDHVCQREVTYAHSVPRITSAI	+
efofCP/RFP: protein from Echinopora forskaliana (EU498726), SEQ ID NO: 34 (protein, listed as Echinopora forskaliana) MSVIKQVMKTKLHLEGTVNGHDFTIEGKGEGKPYEGLQHMKMTVTKGAPLPFSVHILTPSHMYGSKPFNKYPADIPDYHKQSFPEGMSWERSMIFEDGGVCTASNHSSINLQENCFIYDVKFHGVNLPPDGPVMQKTIAGWEPSVETLYVRDGMLKSDTAMVFKLKGGGHHRVDFKTTYKAKKPVKLPEFHFVEHRLELTKHDKDFTTWDQQEAAEGHFSPLPKALP	+
hcriCP: chromoprotein from Heteractis crispa (AF363776), SEQ ID NO: 32 (protein, Entacmaea quadricolor) MAGLLKESMRIKMYMEGTVNGHYFKCEGEGDGNPFTGTQSMRIHVTEGAPLPFAFDILAPCCEYGSRTFVHHTAEIPDFFKQSFPEGFTWERTTTYEDGGILTAHQDTSLEGNCLIYKVKVLGTNFPADGPVMKNKSGGWEPCTEVVYPENGVLCGRNVMALKVGDRRLICHLYTSYRSKKAVRALTMPGFHFTDIRLQMPRKKKDEYFELYEASVARYSDLPEKAN	+
ceriantRFP: red fluorescent protein from Cerianthus sp. DW-2003 (AY296063), SEQ ID NO: 46 (protein, listed as Cerianthus sp.) MNLSKNVSVSVYMKGNVNNHEFEYDGEGGGDPYTGKYSMKMTLRGQNCLPFSYDIITTAFQYGFRVFTKYPEGIVDYFKDSLPDAFQWNRRIVFEDGGVLNMSSDITYKDNVLHGDVWAVGVNFPPNGPVMKNEIVMEEPTEETFTPKNGVLVGFCPKAYLLKDGSYYYGNMTTFYRSKKSGQAPPGYHFVKHRLVKTNVGHGFKTVEQTEYATAHVSDLPK	++
